tested on: isolated rat brain synaptosomes; test: Synaptosomal viability (MTT test), compounds applied alone; type: cell-based; conditions: synaptosomal viability relative to caffeine (1) = 1; 100 µmol
endpoint name: relative synaptosomal vitality (RV)

{"columns": ["given smiles", "endpoint name", "recorded value"],
 "data": [
  ["COc1cccc(C=NNC(=O)CCSc2nc3c(c(=O)n(C)c(=O)n3C)n2C)c1OC", "relative synaptosomal vitality (RV)", 0.959],
  ["Cn1c(=O)c2c(nc(SCCC(=O)NN=Cc3ccc([N+](=O)[O-])cc3)n2C)n(C)c1=O", "relative synaptosomal vitality (RV)", 0.703],
  ["Cn1c(=O)c2c(nc(SCCC(=O)NN=Cc3ccccc3)n2C)n(C)c1=O", "relative synaptosomal vitality (RV)", 0.743],
  ["COc1ccc(C=NNC(=O)CCSc2nc3c(c(=O)n(C)c(=O)n3C)n2C)cc1OC", "relative synaptosomal vitality (RV)", 0.716],
  ["Cn1c(=O)c2c(nc(SCCC(=O)NN=Cc3cccc(Cl)c3)n2C)n(C)c1=O", "relative synaptosomal vitality (RV)", 0.730],
  ["Cn1c(=O)c2c(nc(SCCC(=O)NN=Cc3ccc(Br)cc3)n2C)n(C)c1=O", "relative synaptosomal vitality (RV)", 0.743],
  ["COc1cc(C=NNC(=O)CCSc2nc3c(c(=O)n(C)c(=O)n3C)n2C)ccc1O", "relative synaptosomal vitality (RV)", 0.730],
  ["Cc1cc(C)c(C=NNC(=O)CCSc2nc3c(c(=O)n(C)c(=O)n3C)n2C)c(C)c1", "relative synaptosomal vitality (RV)", 0.716],
  ["Cn1c(=O)c2c(nc(SCCC(=O)NN=Cc3c(Cl)cccc3Cl)n2C)n(C)c1=O", "relative synaptosomal vitality (RV)", 0.689],
  ["COc1cc(C=NNC(=O)CCSc2nc3c(c(=O)n(C)c(=O)n3C)n2C)cc(OC)c1O", "relative synaptosomal vitality (RV)", 0.743],
  ["Cn1c(=O)c2c(nc(SCCC(=O)NN=Cc3cccc([N+](=O)[O-])c3)n2C)n(C)c1=O", "relative synaptosomal vitality (RV)", 0.757],
  ["COc1cc(C=NNC(=O)CCSc2nc3c(c(=O)n(C)c(=O)n3C)n2C)cc(OC)c1OC", "relative synaptosomal vitality (RV)", 0.703],
  ["Cn1c(=O)c2c(nc(SCCC(=O)NN=Cc3ccccc3O)n2C)n(C)c1=O", "relative synaptosomal vitality (RV)", 0.973],
  ["Cn1c(=O)c2c(nc(SCCC(=O)NN=Cc3ccc(C(F)(F)F)cc3)n2C)n(C)c1=O", "relative synaptosomal vitality (RV)", 0.757],
  ["COc1cccc(C=NNC(=O)CCSc2nc3c(c(=O)n(C)c(=O)n3C)n2C)c1O", "relative synaptosomal vitality (RV)", 0.689]
]}
